target: Protein farnesyltransferase (Homo sapiens, UniProt P49354+P49356); test: Inhibition of FTase
Documented pIC50 across a set of molecules
// returns pIC50 (minus log10 of molar concentration), number only

Reference set (2 entries):
{"columns": ["molecule", "recordedMetric", "quantitativeReadout"],
 "data": [
  ["COc1cccc(-c2cc([N+](=O)[O-])ccc2COC(c2ccc(C#N)cc2)c2cncn2C)c1 (configuration not stated)", "pIC50", 5.95],
  ["COC(=O)c1ccc(COC(c2ccc(C#N)cc2)c2cncn2C)c(-c2cccc(OC)c2)c1 (configuration not stated)", "pIC50", 4.88]
]}

Query: Endpoint output: pIC50 of N#Cc1ccc(C(OCc2ccc(C#N)cc2-c2cccc(Cl)c2)c2cncs2)cc1 (configuration not stated) . Value?
Reply: 5.39

Query: Next molecule up: CCOc1cccc(-c2cc(C#N)ccc2COC(c2ccc(C#N)cc2)c2cncn2C)c1 (configuration not stated)
Reply: 6.16

Query: Okay, and Cc1ccc(S(=O)(=O)Nc2cc(C#N)ccc2COC(c2ccc(C#N)cc2)c2cncn2C)cc1 (configuration not stated) ?
Reply: 6.00

Query: Subsequent entry: Cn1cncc1C(OCc1ccc(C#N)cc1-c1cccc(Cl)c1)c1ccc(C#N)c(F)c1 (configuration not stated)
Reply: 6.35

Query: Now the same for Cn1cncc1C(OCc1ccc(C#N)cc1NS(=O)(=O)c1cccc2ccccc12)c1ccc(C#N)cc1 (configuration not stated)
Reply: 5.58

Query: Same read-out for Cn1cncc1C(OCc1ccc(C#N)cc1-c1cc(F)cc(F)c1)c1ccc(C#N)cc1 (configuration not stated) ?
Reply: 6.00

###

molecular target: Protein farnesyltransferase (Homo sapiens, UniProt P49354+P49356); assay: Inhibition of FTase
recordedMetric: IC50 (nM)
# number only, unit nM dropped from output

Some solved cases for reference:
{"columns": ["compound", "quantitativeReadout"],
 "data": [
  ["COc1cccc(-c2cc(C=O)ccc2COC(c2ccc(C#N)cc2)c2cncn2C)c1 (centres undefined)", 1620],
  ["Cn1cncc1C(OCc1ccc(C#N)cc1NS(=O)(=O)c1cccs1)c1ccc(C#N)cc1 (centres undefined)", 891],
  ["Cn1cncc1C(OCc1ccc(C#N)cc1-c1cccc(Cl)c1)c1ccc(C#N)cc1F (centres undefined)", 776]
]}

# evaluate next
Query: Record request: IC50 value, item N#Cc1ccc(C(OCc2ccc(C#N)cc2-c2ccc3c(c2)OCO3)c2cnccc2Cl)cc1 (centres undefined)
Reply: 15100

###

The compounds listed here are annotated with their pIC50.
target: Protein farnesyltransferase (Homo sapiens, UniProt P49354+P49356); assay: Inhibition of FTase
# reply with the number alone; pIC50 is -log10 of concentration in mol/L

{"columns": ["compound", "pIC50"],
 "data": [
  ["Cn1cncc1C(OCc1ccc(Cl)cc1-c1ccccc1Cl)c1ccc(C#N)cc1 (centres undefined)", 5.05],
  ["COc1cccc(-c2cc(C#N)ccc2COC(c2ccc(C#N)c(Cl)c2)c2cncn2C)c1 (centres undefined)", 6.01],
  ["Cn1cncc1C(OCc1ccc(C#N)cc1C(=O)Nc1ccccc1)c1ccc(C#N)cc1 (centres undefined)", 5.65]
]}

Lab note: next compound to report on.
Query: Fill in: pIC50 of Cn1cncc1C(OCc1ccc(C#N)cc1-c1cccc(OC(F)(F)F)c1)c1ccc(C#N)cc1 (centres undefined) is ___
Reply: 6.07
